Hey, just so you know, these numbers are from paper PMC7402526.

Examples of compounds with documented activity at 2.5 µM follow.
- System: total dead cells (totalDeadCells)
- ASSAY_NAME: MLTA, total dead cells concentration-response
- Format: cell-based
- EXPERIMENTAL_CONTEXT: Homo sapiens, 144 h; dose 2500 nM, 6 days, normalized to vehicle control; read-out: total_dead normalized cell count

| COMPOUND | activity at 2.5 µM, % |
| --- | --- |
| CC(=O)O[C@H]1C(=O)[C@@]2(C)[C@H]([C@H](OC(=O)c3ccccc3)[C@]3(O)C[C@H](OC(=O)[C@H](O)[C@@H](NC(=O)c4ccccc4)c4ccccc4)C(C)=C1C3(C)C)[C@]1(OC(C)=O)CO[C@@H]1C[C@@H]2O | 46.1 |
| O=C1CCC(N2C(=O)c3ccccc3C2=O)C(=O)N1 (centres unmarked) [thalidomide] | 99.8 |
| CN(C)C(=O)c1cc2cnc(Nc3ccc(N4CCNCC4)cn3)nc2n1C1CCCC1 | 27.8 |
| CS(=O)(=O)N1CCN(Cc2cc3nc(-c4cccc5[nH]ncc45)nc(N4CCOCC4)c3s2)CC1 | 34.3 |
| CC(=O)O[C@@]12CO[C@@H]1C[C@H](O)[C@@]1(C)C(=O)[C@H](O)C3=C(C)[C@@H](OC(=O)[C@H](O)[C@@H](NC(=O)OC(C)(C)C)c4ccccc4)C[C@@](O)([C@@H](OC(=O)c4ccccc4)[C@H]21)C3(C)C | 48.4 |

* * *

- Tested on: MK cells (MK-lin)
- ASSAY_NAME: MLTA, MK: concentration-response and QSP model fit
- Assay type: cell-based, human
- EXPERIMENTAL_CONTEXT: Homo sapiens, 144 h; dose 25 nM, 6 days, normalized to vehicle control; read-out: MK normalized cell count
- Procedure: A custom optimized cytokine cocktail was developed using commercially available cytokines (Peprotech, New Jersey) to facilitate simultaneous multi-lineage differentiation and self-renewal of freeze-thawed primary human bone marrow-derived CD34+ cells in SFEM II media (cells and media from StemCell Technologies, Vancouver). […] Donor material was collected and cultured as described above. […] Following treatment, cell populations were measured using flow cytometry. […]
Below is a list of entries, each paired with its recorded activity at 0.025 µM value.

| COMPOUND | UNIT_OF_MEASUREMENT | activity at 0.025 µM |
| --- | --- | --- |
| CS(=O)(=O)N1CCN(Cc2cc3nc(-c4cccc5[nH]ncc45)nc(N4CCOCC4)c3s2)CC1 [pictilisib] | % | 85.6 |
| CC(=O)c1c(C)c2cnc(Nc3ccc(N4CCNCC4)cn3)nc2n(C2CCCC2)c1=O [palbociclib] | % | 91.2 |
| CCN1CCN(Cc2ccc(Nc3ncc(F)c(-c4cc(F)c5nc(C)n(C(C)C)c5c4)n3)nc2)CC1 [abemaciclib] | % | 84.2 |
| CC(=O)O[C@H]1C(=O)[C@@]2(C)[C@H]([C@H](OC(=O)c3ccccc3)[C@]3(O)C[C@H](OC(=O)[C@H](O)[C@@H](NC(=O)c4ccccc4)c4ccccc4)C(C)=C1C3(C)C)[C@]1(OC(C)=O)CO[C@@H]1C[C@@H]2O [paclitaxel] | % | 9.64 |
| CCc1cnn2c(NCc3ccc[n+]([O-])c3)cc(N3CCCC[C@H]3CCO)nc12 [dinaciclib] | % | 11.8 |

* * *

- System: late erythroid cells (Eryth II)
- ASSAY_NAME: MLTA, ErythII: concentration-response and QSP model fit
- Assay type: cell-based, human
- EXPERIMENTAL_CONTEXT: Homo sapiens, 144 h; dose 500 nM, 6 days, normalized to vehicle control; read-out: ErythII normalized cell count
- Method: A custom optimized cytokine cocktail was developed using commercially available cytokines (Peprotech, New Jersey) to facilitate simultaneous multi-lineage differentiation and self-renewal of freeze-thawed primary human bone marrow-derived CD34+ cells in SFEM II media (cells and media from StemCell Technologies, Vancouver). […] Donor material was collected and cultured as described above. […] Following treatment, cell populations were measured using flow cytometry. […]
RECORDED_ENDPOINT: activity at 0.5 µM (%)

| COMPOUND | RECORDED_ENDPOINT | REPORTED_RESULT |
| --- | --- | --- |
| CC(=O)O[C@H]1C(=O)[C@@]2(C)[C@H]([C@H](OC(=O)c3ccccc3)[C@]3(O)C[C@H](OC(=O)[C@H](O)[C@@H](NC(=O)c4ccccc4)c4ccccc4)C(C)=C1C3(C)C)[C@]1(OC(C)=O)CO[C@@H]1C[C@@H]2O [paclitaxel] | activity at 0.5 µM | 0.0174 |
| CCN1CCN(Cc2ccc(Nc3ncc(F)c(-c4cc(F)c5nc(C)n(C(C)C)c5c4)n3)nc2)CC1 [abemaciclib] | activity at 0.5 µM | 1.77 |
| O=C1CCC(N2C(=O)c3ccccc3C2=O)C(=O)N1 (stereo not shown) [thalidomide] | activity at 0.5 µM | 87.5 |
| CC(=O)O[C@@]12CO[C@@H]1C[C@H](O)[C@@]1(C)C(=O)[C@H](O)C3=C(C)[C@@H](OC(=O)[C@H](O)[C@@H](NC(=O)OC(C)(C)C)c4ccccc4)C[C@@](O)([C@@H](OC(=O)c4ccccc4)[C@H]21)C3(C)C [docetaxel] | activity at 0.5 µM | 0.0336 |
| CC(=O)c1c(C)c2cnc(Nc3ccc(N4CCNCC4)cn3)nc2n(C2CCCC2)c1=O [palbociclib] | activity at 0.5 µM | 30.3 |
| CS(=O)(=O)N1CCN(Cc2cc3nc(-c4cccc5[nH]ncc45)nc(N4CCOCC4)c3s2)CC1 [pictilisib] | activity at 0.5 µM | 23.3 |
| CN(C)C(=O)c1cc2cnc(Nc3ccc(N4CCNCC4)cn3)nc2n1C1CCCC1 [ribociclib] | activity at 0.5 µM | 66.7 |

* * *

- System: neutrophils (neutrophil-lin)
- ASSAY_NAME: MLTA, Neut: concentration-response and QSP model fit
- Assay type: cell-based, human
- EXPERIMENTAL_CONTEXT: Homo sapiens, Neutrophil, 144 h; dose 100 nM, 6 days, normalized to vehicle control; read-out: Neut normalized cell count
Could you mark each record yes (1) if its activity at 0.1 µM falls strictly under 4%, and no (0) if it equals or exceeds it?

| SMILES_STRUCTURE | CLASS_LABEL |
| --- | --- |
| CCc1cnn2c(NCc3ccc[n+]([O-])c3)cc(N3CCCC[C@H]3CCO)nc12 | yes (1) |
| CN(C)C(=O)c1cc2cnc(Nc3ccc(N4CCNCC4)cn3)nc2n1C1CCCC1 | no (0) |
| CC(=O)O[C@@]12CO[C@@H]1C[C@H](O)[C@@]1(C)C(=O)[C@H](O)C3=C(C)[C@@H](OC(=O)[C@H](O)[C@@H](NC(=O)OC(C)(C)C)c4ccccc4)C[C@@](O)([C@@H](OC(=O)c4ccccc4)[C@H]21)C3(C)C | yes (1) |
| CC(=O)c1c(C)c2cnc(Nc3ccc(N4CCNCC4)cn3)nc2n(C2CCCC2)c1=O | no (0) |
| CC(=O)O[C@H]1C(=O)[C@@]2(C)[C@H]([C@H](OC(=O)c3ccccc3)[C@]3(O)C[C@H](OC(=O)[C@H](O)[C@@H](NC(=O)c4ccccc4)c4ccccc4)C(C)=C1C3(C)C)[C@]1(OC(C)=O)CO[C@@H]1C[C@@H]2O | yes (1) |
| CS(=O)(=O)N1CCN(Cc2cc3nc(-c4cccc5[nH]ncc45)nc(N4CCOCC4)c3s2)CC1 | no (0) |

* * *

- System: multi-potent progenitors (MPPs)
- ASSAY_NAME: MLTA, MPPs: concentration-response and QSP model fit
- Type: cell-based, human
- EXPERIMENTAL_CONTEXT: Homo sapiens, 144 h; dose 1 nM, 6 days, normalized to vehicle control; read-out: MPPs normalized cell count
Classify: y when activity at 0.001 µM is strictly less than 90%; n when activity at 0.001 µM is not.

| MOLECULE | CLASS_LABEL |
| --- | --- |
| CCc1cnn2c(NCc3ccc[n+]([O-])c3)cc(N3CCCC[C@H]3CCO)nc12 | n |
| O=C1CCC(N2C(=O)c3ccccc3C2=O)C(=O)N1 (stereo not drawn) [thalidomide] | y |
| CS(=O)(=O)N1CCN(Cc2cc3nc(-c4cccc5[nH]ncc45)nc(N4CCOCC4)c3s2)CC1 | y |
| CC(=O)O[C@@]12CO[C@@H]1C[C@H](O)[C@@]1(C)C(=O)[C@H](O)C3=C(C)[C@@H](OC(=O)[C@H](O)[C@@H](NC(=O)OC(C)(C)C)c4ccccc4)C[C@@](O)([C@@H](OC(=O)c4ccccc4)[C@H]21)C3(C)C | n |

* * *

- System: lymphocyte progenitors (LymP)
- ASSAY_NAME: MLTA, LymP: concentration-response and QSP model fit
- Assay type: cell-based, human
- EXPERIMENTAL_CONTEXT: Homo sapiens, Lymphocyte, 144 h; dose 5 nM, 6 days, normalized to vehicle control; read-out: LymP normalized cell count

| MOLECULE | activity at 0.005 µM |
| --- | --- |
| CCc1cnn2c(NCc3ccc[n+]([O-])c3)cc(N3CCCC[C@H]3CCO)nc12 | 99.3% |
| CN(C)C(=O)c1cc2cnc(Nc3ccc(N4CCNCC4)cn3)nc2n1C1CCCC1 | 100% |
| O=C1CCC(N2C(=O)c3ccccc3C2=O)C(=O)N1 (centres unmarked) [thalidomide] | 123% |
| CCN1CCN(Cc2ccc(Nc3ncc(F)c(-c4cc(F)c5nc(C)n(C(C)C)c5c4)n3)nc2)CC1 | 92.9% |
| CC(=O)c1c(C)c2cnc(Nc3ccc(N4CCNCC4)cn3)nc2n(C2CCCC2)c1=O | 73.1% |
